Tested on: HCV 1b genotype
test method notes: HCV replicon assay (HCV-neo replicon cells, wild-type)
Type: cell-based, Hepatitis C virus
measurement conditions: Hepatitis C virus, HCV 1b genotype replicon; class symbol; read-out: EC50 Range against HCV 1b
For each of the compounds below, state its EC50.

compound: CCOC(=O)Cc1nc(-c2ccc(NC(=O)[C@H](C)NC(=O)OCc3ccccc3)cc2)c(-c2ccc(NC(=O)[C@H](C)NC(=O)OCc3ccccc3)cc2)o1 [OL-1d]
recorded result: 1000 to 10000 nM
//
compound: CC(=O)N1CCC[C@H]1C(=O)Nc1ccc(-c2cnc(-c3ccc(NC(=O)[C@@H]4C=CCN4C(=O)c4ccno4)cc3)o2)cc1 [Example D-3]
recorded result: 1000 to 10000 nM
//
compound: CC(=O)N1CCC[C@H]1C(=O)Nc1ccc(-c2nc(-c3ccc(NC(=O)[C@@H]4C=CCN4C(=O)Cc4ccccc4)cc3)cs2)cc1 [Example D-49]
recorded result: 1000 to 10000 nM
//
compound: O=C(Nc1ccc(-c2cnc(-c3ccc(NC(=O)[C@@H]4CCCN4C(=O)C(O)c4ccccn4)cc3)o2)cc1)[C@@H]1CCCN1C(=O)C(O)c1ccccn1 (stereo partly drawn) [Example D-14]
recorded result: 100 to 999 nM
//
compound: O=C(Nc1ccc(-c2nnc(-c3ccc(NC(=O)[C@@H]4CCCN4C(=O)C4CCC4)cc3)o2)cc1)[C@@H]1CCCN1C(=O)C1CCC1 [Example D-59]
recorded result: 1000 to 10000 nM

Here is another compound to look at.
Entry O=C(Nc1ccc(-c2nnc(-c3ccc(NC(=O)[C@@H]4CCCN4C(=O)[C@H](O)c4ccccc4)cc3)o2)cc1)[C@@H]1CCCN1C(=O)[C@H](O)c1ccccc1 [RK-16] : EC50 on HCV 1b genotype = < 4.57 nM
